system: Human immunodeficiency virus 1; assay: Antiviral activity against HIV-1 harboring Y188L mutant infected in human MT4 cells assessed as inhibition of virus-induced cytopathic effect by MTT assay; conditions: Human immunodeficiency virus 1, MT4
Field: log10 EC50. Provide a value for each of the molecules that follow.
Annotation: log10 of EC50, nM basis.

What reported log10 EC50 corresponds to "Cc1cc(C#N)cc(C)c1Oc1nc(Nc2ccc(C#N)cc2)nc(N)c1Br" on Human immunodeficiency virus 1?
1.30

What reported log10 EC50 corresponds to N#Cc1ccc(Nc2nccc(C(C#N)c3ccc(-c4ccc(C#N)cc4)cc3F)n2)cc1 (stereo not given) on Human immunodeficiency virus 1?
3.99

What reported log10 EC50 corresponds to "C/N=C(/c1ccnc(Nc2ccc(C#N)cc2)n1)c1ccc(-c2ccc(C#N)cc2)cc1OC(F)(F)F" on Human immunodeficiency virus 1?
4.30

What reported log10 EC50 corresponds to "N#Cc1ccc(Nc2nccc(/C(=N/N)c3ccc(-c4ccc(C#N)cc4)cc3C(F)(F)F)n2)cc1" on Human immunodeficiency virus 1?
3.06

What reported log10 EC50 corresponds to "N#Cc1ccc(Nc2nccc(/C(=N/N)c3ccc(-c4ccc(C#N)cc4)cc3Cl)n2)cc1" on Human immunodeficiency virus 1?
2.89

###

assay: Stability in human plasma assessed as parent compound remaining measured at 30 mins; assay type: ADME, cell-free; settings: read-out: Stability
Field: remaining at 0.5 h. Provide a value for each of the molecules that follow.
Record the value in %, omitting the unit from your answer.

Endpoint output: remaining at 0.5 h of "Cc1cc(C#N)cc(C)c1Oc1nc(Nc2ccc(C#N)cc2)nc(N)c1Br" . Value?
95.4

Endpoint output: remaining at 0.5 h of "COc1cc(-c2ccc(C#N)cc2)ccc1/C(=N\N)c1ccnc(Nc2ccc(C#N)cc2)n1" . Value?
101

Endpoint output: remaining at 0.5 h of "Cc1cc(/C=C/C#N)cc(C)c1Nc1ccnc(Nc2ccc(C#N)cc2)n1" . Value?
99.4

###

assay: Selectivity index, ratio of CC50 for cytotoxicity against human MT4 cells to EC50 for antiviral activity against wild type HIV-1 IIIB infected in human MT4 cells; type: toxicity, cell-based; settings: read-out: Ratio CC50/EC50
measurementLabel: selectivity ratio

Endpoint output: selectivity ratio of CCNC(c1ccnc(Nc2ccc(C#N)cc2)n1)c1ccc(-c2ccc(C#N)cc2)cc1C(F)(F)F (centres undefined) . Value?
146

Endpoint output: selectivity ratio of COc1cc(-c2ccc(C#N)cc2)ccc1C(NC1CC1)c1ccnc(Nc2ccc(C#N)cc2)n1 (centres undefined) . Value?
1680

Endpoint output: selectivity ratio of "N#Cc1ccc(Nc2nccc(/C(=N/N)c3ccc(-c4ccc(C#N)cc4)cc3OC(F)(F)F)n2)cc1" . Value?
4310

Endpoint output: selectivity ratio of CC(C)NC(c1ccnc(Nc2ccc(C#N)cc2)n1)c1ccc(-c2ccc(C#N)cc2)cc1Cl (centres undefined) . Value?
130

###

test: Selectivity index, ratio of CC50 for cytotoxicity against human MT4 cells to EC50 for antiviral activity against wild type HIV-1 IIIB infected in human MT4 cells; format: toxicity, cell-based; details: read-out: Ratio CC50/EC50
measurementLabel: selectivity ratio
Answer field: number only, no words.

Endpoint output: selectivity ratio of CC(C)NC(c1ccnc(Nc2ccc(C#N)cc2)n1)c1ccc(-c2ccc(C#N)cc2)cc1OC(F)(F)F (stereo unspecified) . Value?
24

Endpoint output: selectivity ratio of CNC(c1ccnc(Nc2ccc(C#N)cc2)n1)c1ccc(-c2ccc(C#N)cc2)cc1C (stereo unspecified) . Value?
367

Endpoint output: selectivity ratio of Cc1cc(-c2ccc(C#N)cc2)ccc1C(NC(C)C)c1ccnc(Nc2ccc(C#N)cc2)n1 (stereo unspecified) . Value?
495

Endpoint output: selectivity ratio of CCCNC(c1ccnc(Nc2ccc(C#N)cc2)n1)c1ccc(-c2ccc(C#N)cc2)cc1OC(F)(F)F (stereo unspecified) . Value?
40

Endpoint output: selectivity ratio of "N#Cc1ccc(Nc2nccc(/C(=N/N)c3c(F)cc(-c4ccc(C#N)cc4)cc3F)n2)cc1" . Value?
2480

Endpoint output: selectivity ratio of "C/N=C(/c1ccnc(Nc2ccc(C#N)cc2)n1)c1ccc(-c2ccc(C#N)cc2)cc1C(F)(F)F" . Value?
3280

Endpoint output: selectivity ratio of CCCNC(c1ccnc(Nc2ccc(C#N)cc2)n1)c1ccc(-c2ccc(C#N)cc2)cc1C(F)(F)F (stereo unspecified) . Value?
87

Endpoint output: selectivity ratio of CCNC(c1ccnc(Nc2ccc(C#N)cc2)n1)c1ccc(-c2ccc(C#N)cc2)cc1OC (stereo unspecified) . Value?
60

Endpoint output: selectivity ratio of N#Cc1ccc(Nc2nccc(C(NCCCl)c3ccc(-c4ccc(C#N)cc4)cc3Cl)n2)cc1 (stereo unspecified) . Value?
5890

Endpoint output: selectivity ratio of COc1cc(-c2ccc(C#N)cc2)ccc1C(NC(C)C)c1ccnc(Nc2ccc(C#N)cc2)n1 (stereo unspecified) . Value?
94

Endpoint output: selectivity ratio of CCCNC(c1ccnc(Nc2ccc(C#N)cc2)n1)c1ccc(-c2ccc(C#N)cc2)cc1OC (stereo unspecified) . Value?
110

Endpoint output: selectivity ratio of N#Cc1ccc(Nc2nccc(C(C#N)c3ccc(-c4ccc(C#N)cc4)cc3F)n2)cc1 (stereo unspecified) . Value?
1360

Endpoint output: selectivity ratio of CCNC(c1ccnc(Nc2ccc(C#N)cc2)n1)c1ccc(-c2ccc(C#N)cc2)cc1OC(F)(F)F (stereo unspecified) . Value?
43

Endpoint output: selectivity ratio of CC(C)NC(c1ccnc(Nc2ccc(C#N)cc2)n1)c1ccc(-c2ccc(C#N)cc2)cc1F (stereo unspecified) . Value?
70

Endpoint output: selectivity ratio of "C/N=C(/c1ccnc(Nc2ccc(C#N)cc2)n1)c1ccc(-c2ccc(C#N)cc2)cc1OC" . Value?
1960

Endpoint output: selectivity ratio of CCNC(c1ccnc(Nc2ccc(C#N)cc2)n1)c1ccc(-c2ccc(C#N)cc2)cc1Cl (stereo unspecified) . Value?
187

Endpoint output: selectivity ratio of "N#Cc1ccc(Nc2nccc(/C(=N/N)c3ccc(-c4ccc(C#N)cc4)cc3Cl)n2)cc1" . Value?
33300

Endpoint output: selectivity ratio of CNC(c1ccnc(Nc2ccc(C#N)cc2)n1)c1ccc(-c2ccc(C#N)cc2)cc1OC (stereo unspecified) . Value?
354

Endpoint output: selectivity ratio of CCNC(c1ccnc(Nc2ccc(C#N)cc2)n1)c1ccc(-c2ccc(C#N)cc2)cc1C (stereo unspecified) . Value?
188

Endpoint output: selectivity ratio of "N#Cc1ccc(Nc2nccc(/C(=N/N)c3ccc(-c4ccc(C#N)cc4)cc3C(F)(F)F)n2)cc1" . Value?
2170

Endpoint output: selectivity ratio of N#Cc1ccc(Nc2nccc(C(NCCCO)c3ccc(-c4ccc(C#N)cc4)cc3Cl)n2)cc1 (stereo unspecified) . Value?
345

Endpoint output: selectivity ratio of CNC(c1ccnc(Nc2ccc(C#N)cc2)n1)c1ccc(-c2ccc(C#N)cc2)cc1OC(F)(F)F (stereo unspecified) . Value?
313

Endpoint output: selectivity ratio of CNC(c1ccnc(Nc2ccc(C#N)cc2)n1)c1ccc(-c2ccc(C#N)cc2)cc1F (stereo unspecified) . Value?
196

Endpoint output: selectivity ratio of CNC(c1ccnc(Nc2ccc(C#N)cc2)n1)c1ccc(-c2ccc(C#N)cc2)cc1C(F)(F)F (stereo unspecified) . Value?
363
